B1: Glucocorticoid receptor, residues 419 to 494; numbered along this chain, P04150 (parent)
chain: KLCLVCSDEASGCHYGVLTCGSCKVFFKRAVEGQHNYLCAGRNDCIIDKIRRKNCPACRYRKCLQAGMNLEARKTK

Variants of: B1
testMethodNotes: abundance fitness (aPCA) (normalised: wild type 0, dead -1); higher = more abundant; growth selection in yeast, the domain comes from the species named
experimentalParameters: Homo sapiens
Give Fulfilled when the value for abundance fitness is at least -0.06. Give Not fulfilled when it is less.

- mutantCode: "V17G"
  discreteLabel: "Not fulfilled"

// inclusive: abundance fitness at least -0.06? input: `L4D`
Fulfilled

// inclusive: abundance fitness at least -0.06? input: `A57I`
Not fulfilled
